Test system: T47D, TYS-4 and TDG-1 cells
protocol details: MTS proliferation assay, T47D, TYS and TDG cells
Assay type: cell-based, human
test settings: 4 days
assay metric: effectiveness in killing ERα positive breast cancer cells compared to BHPI

molecule	test target	observed value
COc1ccc(C2(c3ccc(O)cc3)C(=O)Nc3c(C)cccc32)cc1 (stereo not shown)	T47D, TYS-4 and TDG-1 cells	more effective than BHPI
Cc1cccc2c1NC(=O)C2(c1ccc(O)cc1)c1ccc(OC(F)(F)F)cc1 (stereo not shown)	T47D, TYS-4 and TDG-1 cells	more effective than BHPI
COc1ccc(C2(c3ccc(O)cc3)C(=O)Nc3c(C(F)(F)F)cccc32)cc1 (stereo not shown)	T47D, TYS-4 and TDG-1 cells	more effective than BHPI
O=C1Nc2c(C(F)(F)F)cccc2C1(c1ccc(O)cc1)c1ccc(OC(F)(F)F)cc1 (racemic) [(±)-105]	T47D, TYS-4 and TDG-1 cells	more effective than BHPI
